Tested on: K562 chronic myelogenous leukemia
protocol description: Inhibition of proliferation, fluorescence-based assay
Assay type: cell-based
measurement parameters: Homo sapiens, 10–175 μM, 72 hours, read-out: Relative Inhibition of Proliferation
pIC50: −log10 of the molar value.
measure: pIC50

Write pIC50 of CC(=O)C=CC=C(C)C=O [the ketoaldehyde, 2-methyl-6-oxo-2,4-heptadienal] ; system used: K562 chronic myelogenous leukemia
< 4.00

* * *

Test system: DA-3 cell line
protocol description: Viability (MTT test), melphalan with β-Car^OX
Format: cell-based
measurement parameters: Mus musculus, DA-3, in presence of β-Car^OX 20 μM
measure: pIC50
Remember the convention: pIC50 equals -log10 of concentration in molar.

Write pIC50 of N[C@@H](Cc1ccc(N(CCCl)CCCl)cc1)C(=O)O ; system used: DA-3 cell line
5.17

* * *

Test system: HCT116 colon cancer
protocol description: Inhibition of proliferation, fluorescence-based assay
Assay type: cell-based
measurement parameters: Homo sapiens, HCT-116, 10–175 μM, 72 hours, read-out: Relative Inhibition of Proliferation
Experimental: The effect of the ketoaldehyde upon the inhibition of cell proliferation in cultured cancer cells was determined using a conventional, fluorescence-based anti-proliferative assay and a flow cytometry method. The extent of apoptosis was determined for some cell lines as well. The effect of different concentrations of the ketoaldehyde upon the proliferation of the SW480 colorectal and MCF-7 breast cancer cell lines as a function of time is provided in FIGS. 12 and 13, respectively. […]
pIC50: −log10 of the molar value.
measure: pIC50

State its pIC50 for this molecule: CC(=O)C=CC=C(C)C=O [the ketoaldehyde, 2-methyl-6-oxo-2,4-heptadienal]
~4.30
